Experimental Details: Acute intervention: nutrikinetics of plasma metabolites after ingestion of L. citriodora extract (untargeted HPLC-ESI-QTOF-MS)
Condition Context: 2 h after L. citriodora extract
Structures can show the parent of a compound that is named as a salt.
Measured Property: mean chromatographic area in plasma, T2
Note: the reply should be a number with no unit written.

Observe how each entry below is paired with its result.
Compound	mean chromatographic area in plasma, T2
COc1cc(C(=O)O)ccc1OS(=O)(=O)O [vanillic acid 4-O-sulfate isomer 2, vanillic acid 4-O-sulfate]	43
CC1=CC(=O)CC(C)(C)C1(O)/C=C/C(C)=C/COC1OC(CO)C(O)C(O)C1O (single isomer, unassigned; isomer 1) [abscisic alcohol 11-glucoside isomer 1, abscisic alcohol 11-glucoside]	61
C=C(C)[C@@H]1[C@H]2OC(=O)[C@@H]1[C@]1(O)C[C@H]3O[C@]34C(=O)O[C@H]2[C@]14C	91
COc1cc(C=CC(=O)O)ccc1OS(=O)(=O)O [ferulic acid 4-sulfate]	259
Cc1cccc(O)c1O	0
COc1cc(C(=O)O)ccc1OS(=O)(=O)O [vanillic acid 4-O-sulfate isomer 1, vanillic acid 4-O-sulfate]	97

Prompt: What mean chromatographic area in plasma, T2 value was documented for this compound, COc1cc(CCCO)ccc1OC1OC(CO)C(O)C(O)C1O (single isomer, unassigned; isomer 2) [dihydroconiferin isomer 2, dihydroconiferin] ?
Response: 83

Prompt: What mean chromatographic area in plasma, T2 value was documented for this compound, COc1cc(CCO)ccc1OS(=O)(=O)O [homovanillyl alcohol sulfate] ?
Response: 0

Prompt: What mean chromatographic area in plasma, T2 value was documented for this compound, COc1cc(/C=C/C(=O)O)ccc1O[C@@H]1O[C@H](C(=O)O)[C@@H](O)[C@H](O)[C@H]1O [ferulic acid 4-O-glucuronide] ?
Response: 66

---

Experimental Details: Acute intervention: nutrikinetics of plasma metabolites after ingestion of O. europaea extract (untargeted HPLC-ESI-QTOF-MS)
Condition Context: 0.5 h after O. europaea extract
Counter-ions that a name gives are not always drawn.
Measured Property: mean chromatographic area in plasma, T0.5
Note: the reply should be a number with no unit written.

Observe how each entry below is paired with its result.
Compound	Assay Value
OC[C@H]1O[C@@H](OCc2ccoc2)[C@H](O)[C@@H](O)[C@@H]1O (single isomer, unassigned; isomer 1) [3-furanmethanol glucoside isomer 1, 3-furanmethanol glucoside]	27
O=C(Oc1cc(O)c2c(c1)O[C@H](c1cc(O)c(O)c(O)c1)[C@H](O)C2)c1cc(O)c(O)c(O)c1 [epigallocatechin 7-O-gallate]	14
O=C(/C=C/C1=CC(=O)C(=O)C=C1)OC1CC(O)(C(=O)O)CC(O)C1O (centres unmarked)	181
COc1cc(CCO)ccc1OS(=O)(=O)O [homovanillyl alcohol sulfate]	0
Oc1cc(O)c2c(c1)O[C@H](c1ccc(O)c(O)c1)[C@H](O)[C@H]2SCc1ccccc1 [4β-benzylthioepicatechin]	25

Prompt: What mean chromatographic area in plasma, T0.5 value was documented for this compound, `COc1cc(C(=O)O)cc(OC)c1OC` ?
Response: 34

Prompt: What mean chromatographic area in plasma, T0.5 value was documented for this compound, `Cc1cccc(O)c1O` ?
Response: 290

Prompt: What mean chromatographic area in plasma, T0.5 value was documented for this compound, COc1cc(C(=O)O)ccc1OC1OC(C(=O)O)C(O)C(O)C1O (centres unmarked) [vanillic acid glucuronide] ?
Response: 0
